Can you tell me Human VPAC2 Receptor: Alphascreen (EC50; nM) for the items I'm about to list?
STUDY_SYSTEM: T1, human VPAC2 receptor (human, UniProt P41587 24-438)
T1 sequence (looked up): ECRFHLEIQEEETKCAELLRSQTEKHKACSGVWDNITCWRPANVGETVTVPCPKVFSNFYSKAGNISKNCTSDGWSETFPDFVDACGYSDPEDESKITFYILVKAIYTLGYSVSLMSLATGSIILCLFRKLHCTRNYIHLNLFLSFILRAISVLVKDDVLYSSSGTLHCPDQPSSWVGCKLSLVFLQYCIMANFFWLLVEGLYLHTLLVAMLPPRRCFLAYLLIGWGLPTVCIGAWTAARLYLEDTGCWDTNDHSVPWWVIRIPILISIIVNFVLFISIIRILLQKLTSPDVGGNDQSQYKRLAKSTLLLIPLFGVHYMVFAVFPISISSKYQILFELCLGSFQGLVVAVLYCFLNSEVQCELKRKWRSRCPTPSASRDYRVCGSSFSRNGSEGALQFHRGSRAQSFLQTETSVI
ASSAY_SUMMARY: cell-based or functional assay
Value expressed in nM; do not type the unit.

Value of Human VPAC2 Receptor: Alphascreen (EC50; nM) reported for the binder HSDAVFTEQYTXLRXQVAAXXYLQSCXXGGPSSGAPPPC (C6-HSDAVFTEQY(OMe)TOrnLRAibQVAAAibOrnYLQSC(PEG20K)OrnOrnGGPSSGAPPPC(PEG20K)-NH2) [P503] is 147

Value of Human VPAC2 Receptor: Alphascreen (EC50; nM) reported for the binder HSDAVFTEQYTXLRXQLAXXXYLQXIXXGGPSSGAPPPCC (C6-HSDAVFTEQY(OMe)TOrnLRAibQLAAbuAibOrnY(OMe)LQAibIOrnOrnGGPSSGAPPPC(PEG20K)C(PEG20K)-NH2) [P574] is 21.2

Value of Human VPAC2 Receptor: Alphascreen (EC50; nM) reported for the binder HSDAVFTEQYTXLRXQLAXXXYLQXCXXGGPSSGAPPPS (C6-HSDAVFTEQY(OMe)TOrnLRAibQLAAbuAibOrnYLQAibC(PEG40K)OrnOrnGGPSSGAPPPS-NH2) [P541] is 45.8

Value of Human VPAC2 Receptor: Alphascreen (EC50; nM) reported for the binder HSDAVFTEQYTXLRXQVAXXXYLQXIXXGGPSSGAPPPC (C6-HSDAVFTEQY(OMe)TOrnLRAibQVAAbuAibOrnYLQAibIOrnOrnGGPSSGAPPPC(PEG40K)-NH2) [P511] is 7.6

Value of Human VPAC2 Receptor: Alphascreen (EC50; nM) reported for the binder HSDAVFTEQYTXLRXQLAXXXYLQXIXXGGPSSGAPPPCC (C6-HSDAVFTEQY(OMe)TOrnLRAibQLAAbuAibOrnYLQAibIOrnOrnGGPSSGAPPPC(PEG20K)C(PEG20K)-NH2) [P517] is 7.5

Value of Human VPAC2 Receptor: Alphascreen (EC50; nM) reported for the binder HSDAVFTEQYTXLRXQVAAXXYLQSXXXGGPSSGAPPPS (C6-HSDAVFTEQY(OMe)TOrnLRAibQVAAAibOrnYLQSK(WPEG40K)OrnOrnGGPSSGAPPPS-NH2) [P535] is 98.4

Attribution: patent US20080234198A1
